Experimental target: T1, cynomolgus CD3 (cynomolgus (Macaca fascicularis), UniProt Q95LI5 22-198; Q95LI8 22-171; Q95LI7 23-181)
T1 construct: whole, on cells; composition of the 'mix' not defined; also called cynoCD3
T1 sequence (Q95LI5 22-198, chain 1 of 3): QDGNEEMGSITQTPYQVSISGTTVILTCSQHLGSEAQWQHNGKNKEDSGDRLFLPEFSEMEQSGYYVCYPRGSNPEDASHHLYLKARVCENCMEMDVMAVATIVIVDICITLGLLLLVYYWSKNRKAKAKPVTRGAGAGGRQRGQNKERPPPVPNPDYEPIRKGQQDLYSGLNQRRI
T1 sequence (Q95LI8 22-171, chain 2 of 3): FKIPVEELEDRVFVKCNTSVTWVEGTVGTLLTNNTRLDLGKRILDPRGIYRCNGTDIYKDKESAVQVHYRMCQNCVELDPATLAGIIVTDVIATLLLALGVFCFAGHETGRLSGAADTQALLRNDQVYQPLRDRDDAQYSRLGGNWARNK
T1 sequence (Q95LI7 23-181, chain 3 of 3): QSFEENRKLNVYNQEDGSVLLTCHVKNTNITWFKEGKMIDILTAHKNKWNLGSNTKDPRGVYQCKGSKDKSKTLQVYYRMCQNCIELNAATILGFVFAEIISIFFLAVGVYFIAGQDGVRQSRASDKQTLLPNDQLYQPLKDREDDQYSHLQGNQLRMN
Assay procedure: FACS on 293T-cynoCD3mix cells
Property name: Top signal
# print the numeric value only

Consider the following illustrative entries.
- hu147E2-L1H2 (antibody, V domains shown, humanized 147E11E2; also called hu14E2-L1H2) VH: EVQLVQSGAEVKKPGSSVKVSCKASGYTFTSYWMHWVRQAPGQGLEWMGNINPSNGATNYNEKFKSRVTITADKSTSTAYMELSSLRSEDTAVYYCARDRSSQYYFDYWGQGTTVTVSS VL: DIVMTQSPDSLAVSLGERATINCKSSQSLLNSRSRKNYLAWYQQKPGQPPKLLIYWASTRESGVPDRFSGSGSGTDFTLTISSLQAEDVAVYYCTQSYTLRTFGGGTKVEIK: 19700
- hu147E2-L1H3 (antibody, V domains shown, humanized 147E11E2; also called hu14E2-L1H3) VH: EVQLVQSGAEVKKPGSSVKVSCKASGYTFTSYWMHWVRQAPGQGLEWMGNINPSNGATNYNEKFKSRVTLTVDKSTSTAYMELSSLRSEDTAVYYCARDRSSQYYFDYWGQGTTVTVSS VL: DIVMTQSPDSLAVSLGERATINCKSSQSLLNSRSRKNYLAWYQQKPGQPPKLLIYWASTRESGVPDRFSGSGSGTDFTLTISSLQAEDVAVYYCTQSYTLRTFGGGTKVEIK: 19200
- hu147E2-L3H4 (antibody, V domains shown, humanized 147E11E2; also called hu14E2-L3H4) VH: EVQLVQSGAEVKKPGSSVKVSCKASGYTFTSYWMHWVRQAPGQGLEWIGNINPSNGATNYNEKFKSRATLTVDKSTSTAYMELSSLRSEDTAVYYCARDRSSQYYFDYWGQGTTVTVSS VL: DIQMTQSPSSLSASVGDRVTITCKSSQSLLNSRSRKNYLAWYQQKPGKAPKLLIYWASTRESGVPSRFSGSGSGTDFTLTISSLQPEDFATYYCTQSYTLRTFGGGTKVEIK: 16100

Please find the next binder below.
Fill in the blank: the reported Top signal of hu147E2-L1H4 (antibody, V domains shown, humanized 147E11E2; also called hu14E2-L1H4) VH: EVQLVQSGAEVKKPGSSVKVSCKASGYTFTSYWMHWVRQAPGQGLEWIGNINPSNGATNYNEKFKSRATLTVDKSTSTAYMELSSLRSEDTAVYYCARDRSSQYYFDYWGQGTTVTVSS VL: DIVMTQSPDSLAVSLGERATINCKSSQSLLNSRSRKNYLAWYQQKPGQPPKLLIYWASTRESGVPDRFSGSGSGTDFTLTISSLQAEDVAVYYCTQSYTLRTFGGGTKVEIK is ____. 18700

The measurements presented in this section are drawn from patent US20250223358A1.
